- System Name: UniProt P49760
- Sequence (P49760 whole entry): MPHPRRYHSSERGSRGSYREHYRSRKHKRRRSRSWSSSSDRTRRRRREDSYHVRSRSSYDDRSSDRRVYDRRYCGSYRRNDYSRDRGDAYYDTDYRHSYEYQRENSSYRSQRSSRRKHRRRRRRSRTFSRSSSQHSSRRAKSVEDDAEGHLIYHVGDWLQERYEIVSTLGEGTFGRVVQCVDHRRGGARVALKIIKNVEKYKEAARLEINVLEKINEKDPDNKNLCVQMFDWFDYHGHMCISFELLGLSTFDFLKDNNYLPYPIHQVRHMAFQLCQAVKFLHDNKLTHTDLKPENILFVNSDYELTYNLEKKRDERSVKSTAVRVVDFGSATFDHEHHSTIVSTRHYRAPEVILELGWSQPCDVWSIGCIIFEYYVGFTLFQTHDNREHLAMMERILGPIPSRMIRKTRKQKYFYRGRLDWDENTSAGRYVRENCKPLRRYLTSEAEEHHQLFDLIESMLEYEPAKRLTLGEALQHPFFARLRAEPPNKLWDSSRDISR
- Assay Explanation: CLK2 kinase activity assay (Z-lyte FRET);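 also: FRET read-out as coumarin to fluorescein emission ratio, unphosphorylated peptide as 0% and phosphorylated peptide as 100% controls, duplicate reactions, non-linear regression fit of dose-response curves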
- Condition Set: Z-lyte Ser/Thr 6 peptide, 60 μM ATP, 1 h at room temperature
Measurement Kind: pEC50
Answers are plain numbers, as −log10 of the molar value.

{"columns": ["Record Smiles", "Value Measured"],
 "data": [
  ["c1cc(-c2ccoc2)c2cc(-c3n[nH]c4ccc(-c5cncc(CNCC6CCCC6)c5)nc34)[nH]c2c1", 7.85],
  ["c1ncc(-c2ccc3[nH]nc(-c4cc5c(N6CCCCC6)cncc5[nH]4)c3c2)cc1CN1CCCC1", 8.52],
  ["Fc1cccc(-c2nccc3[nH]c(-c4n[nH]c5ccc(-c6cccnc6)nc45)cc23)c1", 8.10],
  ["CC(C)Nc1cncc(-c2ccc3[nH]nc(-c4nc5c(-c6cccnc6)cncc5[nH]4)c3n2)c1", 8.70],
  ["CC(C)C(=O)Nc1cncc(-c2ccc3[nH]nc(-c4nc5c(-c6cccnc6)cncc5[nH]4)c3c2)c1", 8.40],
  ["CCC(=O)Nc1cncc(-c2cnc3[nH]nc(-c4cc5c(-c6cccc(F)c6)cncc5[nH]4)c3c2)c1", 8.52]
]}

Kindly give each listed record's pEC50.
1. CCNCc1cncc(-c2cnc3[nH]nc(-c4cc5c(-c6cccnc6)ccnc5[nH]4)c3c2)c1
2. CCCCC(=O)Nc1cncc(-c2ccc3[nH]nc(-c4nc5c(-c6cc(F)cc(NCCN(C)C)c6)ccnc5[nH]4)c3n2)c1
3. CC(C)(C)C(=O)Nc1cncc(-c2ccc3[nH]nc(-c4nc5c(-c6ccc(F)cc6)cncc5[nH]4)c3n2)c1
4. COc1cncc(-c2ccc3[nH]nc(-c4nc5c(-c6cccc(F)c6)nccc5[nH]4)c3n2)c1

Return:
1: 8.40; 2: 8.70; 3: 8.10; 4: 8.40

Kindly give each listed record's pEC50.
1. O=C(Nc1cncc(-c2cc3c(-c4cc5c(-c6cccnc6)cccc5[nH]4)n[nH]c3cn2)c1)C1CC1
2. O=C(Nc1cncc(-c2cc3c(-c4cc5cnccc5[nH]4)n[nH]c3cn2)c1)C1CCCCC1
3. COc1cccc(-c2cncc3[nH]c(-c4n[nH]c5ccc(-c6cncc(NC(=O)C7CCCCC7)c6)nc45)nc23)c1
4. Cc1cn(-c2cncc3[nH]c(-c4n[nH]c5ccc(-c6cncc(NC(=O)C(C)(C)C)c6)nc45)nc23)cn1
5. O=C(Nc1c[nH]nc1C(=O)Nc1ccc(N2CCCC2)nc1)c1cncc(OC2CCNCC2)c1

Return:
1: 7.92; 2: 8.52; 3: 8.15; 4: 8.52; 5: 8.05
